# experimental-protocol: in vitro
# experimental-parameters: human
readout-type: IC50

compound	result
CC(=O)OCC(C)=CCCC(C)(O)C1CCC(C)(O)C1C (centres unmarked) [Compound 8, Cyclonerodiol C]	> 40 µM
CC1C(C(C)(O)CC=CC(C)(C)O)CCC1(C)O (centres unmarked) [Compound 9, Cyclonerodiol D]	> 40 µM

----------
Listed compounds paired with reported IC50
# experimental-protocol: in vitro
# experimental-parameters: human
readout-type: IC50

compound	readout-type	result
CC(=O)OCC(C)=CCCC(C)(O)C1CCC(C)(O)C1C (centres unmarked)	IC50	> 40 µM
CC1C(C(C)(O)CC=CC(C)(C)O)CCC1(C)O (centres unmarked)	IC50	> 40 µM
